# Protocol text: Cytotoxicity against human HUVEC cells assessed as cell viability incubated for 72 hrs by MTT assay
# Type: toxicity, cell-based
Binary label based on IC50 at 72 h with cut-off 2000 nM: below gives Yes, not below gives No.

| Molecule | Label value |
| --- | --- |
| COC(=O)c1ccc2c(c1)NC(=O)/C2=C(\Nc1ccc(N(C)C(=O)CN2CCOCC2)cc1)c1ccccc1 | No |
| CN(C(=O)CN1CCOCC1)c1ccc(N/C(=C2\C(=O)Nc3cc(Br)ccc32)c2ccccc2)cc1 | No |
| COC(=O)c1ccc2c(c1)NC(=O)/C2=C(\Nc1ccc(N(C)C(=O)C(C)N2CCOCC2)cc1)c1ccccc1 (racemic) | No |
| CCN1CCN(C(C)C(=O)N(C)c2ccc(N/C(=C3\C(=O)Nc4cc(C(=O)OC)ccc43)c3ccccc3)cc2)CC1 (racemic) | Yes |
| CN(C(=O)CN1CCN(CCO)CC1)c1ccc(N/C(=C2\C(=O)Nc3cc(Br)ccc32)c2ccccc2)cc1 | No |
| CC(C(=O)N(C)c1ccc(N/C(=C2\C(=O)Nc3cc(Br)ccc32)c2ccccc2)cc1)N1CCCN(C)CC1 (racemic) | No |
| CCN1CCN(C(C)C(=O)N(C)c2ccc(N/C(=C3\C(=O)Nc4cc(Br)ccc43)c3ccccc3)cc2)CC1 (racemic) | Yes |
| CC(C(=O)N(C)c1ccc(N/C(=C2\C(=O)Nc3cc(Cl)ccc32)c2ccccc2)cc1)N1CCSCC1 (racemic) | No |
| CCN1CCN(C(C)C(=O)N(C)c2ccc(N/C(=C3\C(=O)Nc4cc(Cl)ccc43)c3ccccc3)cc2)CC1 (racemic) | Yes |
| CN(C)CCN(C)CC(=O)N(C)c1ccc(N/C(=C2\C(=O)Nc3cc(Br)ccc32)c2ccccc2)cc1 | No |
| COC(=O)c1ccc2c(c1)NC(=O)/C2=C(\Nc1ccc(N(C)C(=O)C(C)N2CCSCC2)cc1)c1ccccc1 (racemic) | No |
| COC(=O)c1ccc2c(c1)NC(=O)/C2=C(\Nc1ccc(N(C)C(=O)C(C)N2CCN(C)CC2)cc1)c1ccccc1 (racemic) | Yes |
| CN(C(=O)CN1CCN(CCO)CC1)c1ccc(N/C(=C2\C(=O)Nc3cc(Cl)ccc32)c2ccccc2)cc1 | Yes |
| COC(=O)c1ccc2c(c1)NC(=O)/C2=C(\Nc1ccc(N(C)C(=O)CN(C)CCN(C)C)cc1)c1ccccc1 | No |
| CC(C(=O)N(C)c1ccc(N/C(=C2\C(=O)Nc3cc(Cl)ccc32)c2ccccc2)cc1)N1CCOCC1 (racemic) | No |
| COC(=O)c1ccc2c(c1)NC(=O)/C2=C(\Nc1ccc(N(C)C(=O)C(C)N2CCNCC2)cc1)c1ccccc1 (racemic) | No |
